- assay method text: label from the status in PepcDB records
attribute measured: protein production

MTNVISYNNDKGLLAYIQFLADRALKPSNGNTDPVFDFEDALDQTEMAQLAVDELKKIPEVNTLFAERWLPAPFNLDDLAKLPEGTLGHVYAIEMKARGFDPYFYKKVPVVDDISYLKMLWRSTHDIYHVVAGFDTDGIGEIGLQAFVLAQTPIPISVMLVSFGMVMTSLYQPAKFQDLMAEIARGYSLGSHTPRKLIAQKWDQFWDVPVIEIRECLGMNTVKQRERA = failed
MSSVERYLSQLVKTEPQLETLKELYIGKKWHQLTEELLKLIHSGQVNRINLVELYDSFIREFESSLNPLALVRILVGIARKNYRDLNKALEFVDYATNSKAFISADEEASLFLKSETARLKLEGGNLSGVKQILEEVGVAMESTRDLDTVVHSSYHRVCAQYYKAVGPATKYYSSALLFFQYAPLDSFTVEERVHWAYDLGVASIVAETIFNFGEILEYDIMQSLKSEKLQWLLELLEAFKYGSIEKFNQVSNDHMSYYFVL = failed
MILTVGNTKGGVGKTTLAVNLAVERFLAGKDVLLIDADNQRTSSAFSALRESLHGQTGYTCIELSGSAVHQQGRNLAPKYDEVIIDVGGRDTSALRGALAISDIALVPFAVGTFDIWAAEDIGRLIEEARGFNPTLRAFSVLNMADPAGGDNADAAGLLTETSALVYLRASLVRRKAMRNAAAAGLGVLEMTGSSRDSKACGEVGYLAELLYNKLNLEHHHHHH = failed

* * *

- assay method text: label from the status in PepcDB records
attribute measured: protein production

MESKTNYTIVGLIVLILTAGLLSAGLWLSVGFNQKEYTSYTVYLKESVSGLSVESPVKFNGVQVGYVKEIKLNKNDPRQVELLLNIEKSTPITTSTSATLITQGITGVTYVGLSAGSSELTPLRKMPGEPYPVIPSKPSLLNQLDAVLKEVAENVGAVSEKAQLIFNEENADNVRKSLANLERITEIIADKGQTIDSSLNNLDVFVANMANASKQFPQLIKDLKTGISKFKSLADNMSAAGKDVSKTMIAGKNTIDQISQQAIPPAVILLRRLNAISANLEKVSNEMRQNPSVIIRGTKAPKLGPGELEHHHHHH = failed
MVNEVQGIGIPTSHTSVQTTPTKEISRTNTINTVDESKTTIDPDQYKPKLELLSERLNEEMKRIGTDINFSYNDTIKGLVVSVKDANGDKVIREIPSKEAVELMQRMRDVIGIIFDKRG = failed
MLQRTLSSIQIIGGVTQALFILSICLASINPPTEFTMRRTMAMSMRKYSSHSTPRMARIPTTFVVIVLRPTILSGSVGPVITLYIAIKAVPRSTQTPATKTFS = failed
MSGMRVYLGADHAGYELKQRIIEHLKQTGHEPIDCGALRYDADDDYPAFCIAAATRTVADPGSLGIVLGGSGNGEQIAANKVPGARCALAWSVQTAALAREHNNAQLIGIGGRMHTVAEALAIVDAFVTTPWSKAQRHQRRIDILAEYERTHEAPPVPGAPA = not failed

Field: next sequence
What value of protein production has been recorded for this entry: MLEKVEEWIKARGLTWRLLIMQKPTRTVAEAAALLGVSESEIVKTLIVLDNAGGVYAVVIPGDKRLNINSMKELAGKPVRLARANEVVELTGYPVGGVPPVALPPNIVLVVDRILLSRKKVYGGGGRENALLEFSPRELVEATGAVVADVSE
not failed

* * *

- assay method text: label from the status in PepcDB records
attribute measured: protein production

Examples from the recorded data:
WQWDLATNKFIYSDNQHRLLGVERDSFESSNDAFINFVHPEDRHVIKNGERMVLDEQQSSVAFFRVIRKDGQMRYFKSIGKLLTDSSGNKILIGINNDITEEH = failed
MEFNQFGQPIGHAIQQPIPGKFKAQSLIGNDVNLVLIEQDRVALKNVEQLWDCIKTEPDERCWTYLPYEAPETFRQLEYNLKRNFGFEPSFHYWIMVEGQAVGWIALMNLREQHAAVEIGNVYFSHRLKQTAAATEVIYLLLNHCFEQGLRRIEWKCDDLNGPSKRAALRFGFVYEGLFRQDRVSKGRNRDTTWFSIIDSEWASLKTAYLQWLNPDNFNHAGKQKKRLEDFIVT = failed
MTKKLNPLEDPPTATSSDEDDVETSEAGEASDDSSSSEEDVPIKIRIKSPSATTAAAPPAKSTAVSTAADSDSGSETETDSDSESTNPPNSGSGKTIALNTVNLKKKEDPTSSSATLALPAMKSGTKRPASEAAATTSTKRVKKDEESVKKPGGFQRLWSEEDEILVLQGMIDFKADTGKSPYVDTNAFYDFLKKSISFEVSKNQFMDKIRSLRKKYIGKEGRNEPSFVKAHDKKAFELSKFIWGPKGIALDSNVKSNGVSKKSVAKKKIDSVKQELVFAGGSSTNGKKVEEDGGDDGCDWFDNSSLVRMIASLGVDEYYVKQQWSLVSVESKKIVEEKYKLLQAKELEFVLEKTKFLNEVASMFVEASKNKPLDT = failed
MTETKPRIAIRYCTQCNWLLRAGWMAQEILQTFASDIGEVSLIPSTGGLFEITVDGTIIWERKRDGGFPGPKELKQRIRDLIDPERDLGHVDRTKHEGLDT = not failed
MERIVMPANYVHTRTTPFWTKETAPASIWRRHLDAGTRQGVYPRLCVMQGTIRYYGYADETSPEPVETLTIEAGQFGVFPPEKWHRIEALSDDTLFNVDFYVDPKILIEGLEHHHHHH = failed

// protein production lookup, key: MGEMENIIYSIYHPTILVGFAIGILSLLAIGFQKNDLHALILTDVVECAMLIIIAGVGTDLAEALILPGLVVSLAELLAVSEVLITRKYLKSKRPKPKSYKLFEEFKLPLYTGELKYDIHMEILKTSPKFLAIILIVYGAILSGFTGGAVIATGLLFYALSQRVIGVEISEELKTMWEGISGLSGIAWALWIFGFIGFFVFPDKWLLCLLMAGLGLVIKVGSKLGLIGYIGEVR
failed

Using the record for MSITLLTGIGEIFLGILLNVFIGKIVKIVFKKDGTLPRVPVRFIGITLILNGVGNMVHL , report its protein production.
failed

So what's the measured protein production for this one? MCASKRSFFMSNSKFNVRLLTEIAFMAALAFIISLIPNTVYGWIIVEIACIPILILSFRRGLTAGLVGGLIWGILSMITGHAYILTLSQAFLEYLIAPVSLGIAGLFRQKTASLKLVPVLLGTFVAVLLKYFFHFIAGIIFWSQYAWKGWGAVAYSLAVNGISAILTAIAAFVILIIFVKKFPKLFIYSNY
failed

Entry MSRQFIIQLFLALLLCCLTITFSSIAKSAETTSTDDATDLVVAQKIIKNQQQTEKSSSASAVAVQQPQIANDMADGQSIRNLPSLNEPVIDQANLLSSEQRQALSDQIRQLYQTGKAQMAVVIVPTTGQEDIFDYAMRVGEKWQLGSAKRDNGILMAIAVNDRRIQILTGYGLEGVLPDIVVGRIIRDQITPYFKQAQYAQGIQSGVNEIEKIVNMDPEIAQQAAQDLKQRQEQALHEQQARSQMMVYSLIIVVVGIFASYIVGNRLSAATAGVAGIAAGVISGVGLITSLLIGLGIFLLLITSLAQLILQIFASGGGRGGGGGFGGGGGGGYSGGGGSFGGGGASGSW : reported protein production = ?
failed

Form field: reported protein production of AIAMFTLPLLFPIITLPEPTGKYTVGTKAFHLIDTNRKETTVPNNHGNRELMIQVYYPAEKGSGKPSAYFENIDALAEQLAVTKGAPYIVTTHLGLTKTHSYQDAKPLQVKEKFPLLLFGHGMELYGQQNTFQLEELASQGYVVIALNFTGYAATTIFPNGKRIDSVPIEFTPNALNNMVRNWEQDTTFILNEVIKGNFDKNFTAIANLIDDDKIGMFGHSYGGATAAQMLVKDNRIKAAIDMDGGLYGDPMPKDGPQKPFMLMNAEATIQYMKEAENQKTDGIQDELFEISYLRNKTIEKPGAYTVVLPKTNHNSFTDLAAFSPIINEPGEDVSANYTLINKLVTSFFDQTLKG
failed

* * *

- assay method text: label from the status in PepcDB records
attribute measured: protein production

Guide cases for protein production, answers given:
MARKRLIIEMGMGIDQHGQEPTIAASRAVRNAIAHNALPGVWEVAGLSHPNEMIIEVQVAVPYPEQVREEEVLAVLPFGRKTLTVESGGMIVQGRAIPELNDKNDEMLIAIAAVTVLIENE = not failed
MPRKKKTVEDPALTRALKVMEAGALPDADLAAEFATLAESYGKLLRKFNKTLVISDAYEAQHQAMAKKLEEATWKYRQLKDVALPICMYCKKIRSDDDYWQRLETFFCNHADIMFSHGICPDCIKTAYEKMGMNRRAMPLPDAAVTGQPAASPERQPVEDDALREMRALVRRSAFDGSPVAPEVEQFVEKYGKLLRRFSKIVSISDSYQSQLRELNARLELMARTDLLTGLANHWEMVMRLAAEQSRSERNGKVFSIVLADIDHFKKVNDTHGHQAGDRVIRGIADTLRTNIRREDICSRWGGEEFLIILPEADLPRAGAVAAKLLAKVRNTVVPWDGRDIRVTVSIGYGTSEPGMSVDELIRRVDDALYSAKAAGRDRFAAAGSRADV = failed
MKRALEFLKECGVFYLATNEGDQPRVRPFGAVFEYEGKLYIVSNNTKKCFKQMIQNPKVEISGMNKKGQWIRLTGEVANDDRREVKELALEAVPSLKNMYSVDDGIFAVLYFTKGEGTICSFKGENETFSL = not failed
MARVRFENKRVNMSKLSQFGFEPNQNGQYQFRILIMQGQFEMIIELNTDGSLNTTLTDTTTSEVYVLHLTSQAHGQFVGQVAQAYQDVLYNIEQHCYDNDVFQSTPERKLIAQVKAAYGDDLEFLWPKFPQNAVWRRSDTHKWYGALLTVTSDKLALPGATHVVTVLDLRARPEDLSMLIDGQHYLPGYHMNKKHWYSILLDDVVPLATIMDDVKVSYMLAKLEHHHHHH = not failed
MRLSISLGESPCISSLKVRGFTASPQTPNLSISVIVTAFNRREYLRYALLSLKNQEADSFEVVVSKNFSDRVTDKFCSENGFINVTTDSSRSGERVYDALRSSHGDFILFLDDDDIFRRTKISRVSDVISKRNVAFYRNAIFPVTVDGVIATHYQPQMHDPLYLILERVSDVRLLHRHACDFNSSSMGISRSMLDSHASDLRKINLAVDTFYFALAASSRMPLFCDSMIESIYRIMPSSTSRDLRDFYLFSRFERSFLRRYVPDLERIAEIVEGSPAKPVIGRMLSLYKILQYVFEEDRVNLKPSPLDRVRFLLERPFPYSLLYSRIFRDAAMRSEFRRENRIVYGNADRRRRLEHHHHHH = not failed

Entry MAVVSHGGFRAAARALDVSQGGLTKSIAALEQEYGVDLIERSAKGVLLTPKGAAFVPLARAIVEEAERAEGWLRAQSGELSTSVSLGVSIEPSIRLAPAVLRDFRKALPDTSVHLTQGVALDLLGALRENRIELAVIRLPRNFDSSDLKVQRLYQSEPVIVGRAGHPGAGAASLRELVKYDWVVVGDTSRQGAMNDDSIWELFDREGLGRPRFAAVCNSLLSIVAMLMESDALARVPRALLDHSLARRNLIPIPVAEPPVPYWIATVHKASRRLSPEAQTLNAMLSSYARISGALSPERRPGEP : reported protein production = ?
failed

Reported protein production, sequence YPLRKTQAVQSTQFDSRHSFVTKLKPYADKAARMLGVDSSLLIAQAALETGWGQKMVKNARGNSNNLFNIKADRSWQGDKVATQTLEYHNNVPVVEKAAFRSYASFDESFNDYVRFLENNPRYTNALDHGGNSERFIHGIHRAGYATDPQYADKVLRVKAQIDQMNL : ____
failed

Endpoint output: protein production of MLETAALAAGMSWASGIRLYLAVLTAGVLARLGWLDLPPGLHVLESWWVIGIAGAMAAAEFVADKVPGFDTVWDGIQTFIRIPAGAILAAAAFGQLDPQWMVAAGLIGGTLAGTAHATKAGTRALINVSPEPFSNWVASFTEDITTAGGLLLAFFLPVVFLILLVLFLITAAWLLPKLWRGVRRLHAGLRGNADNQRP . Value?
failed

Given the sequence MSEDNFDDEFDGSLPSGPRHPMARRFRGYLPVVVDVETGGFNSATDALLEIAATTVGMDEKGFLFPEHTYFFRIEPFEGANIEPAALEFTGIKLDHPLRMAVQEEAALTEIFRGIRKALKANGCKRAILVGHNSSFDLGFLNAAVARTGIKRNPFHPFSSFDTATLAGLAYGQTVLAKACQAAGMEFDNREAHSARYDTEKTAELFCGIVNRWKEMGGWMDDDD , what is its reported protein production?
not failed

Can you share its protein production? I mean this sequence: MVIQIVIISPGDGNLSPAHLLHRFALSLLESLRGKKMMFVGTEEMYLSLICLLHSQIPENYKSMDYLWITHRLLSQDLEILVDYNAMIEFYWAPFLLESNSDNAIVDIVSDRIMRKGLINKHGKHWRGADIVVESSFKDGNKRIVEMESEDAYLMTMGKWVKKSMDPLRTKVFFSTMSPTHYKIEDWGGEQGKNFYNQTTPIQDMNHWPSDCSKTLMKVIGEELDQRADFLVTVLNITQLTSYRKDAHTSIYKKPWSPYDEGSASKSG
failed

Entry under review: MGFNVKTPLLATDVIIRLWDGENFKGIVLIERKYPPVGLALPGGFVEVGERVEEAAAREMREETGLEVRLHKLMGVYSDPERDPRAHVVSVVWIGDAQGEPKAGSDAKKVKVYRLEEIPLDKLVFDHKKIILDFLKGNY . Reported protein production?
not failed

Given MTKFKGIIYASLGAAFFGISSIIAGLLFNRCSIEPGWLVTTRMLFSGLLLLAWLAITKHNIFSVWSSVKSSLRIVAFGIFGVLFAQSSFLLSVYYGNAAIATILQSLGPSIIIIILAIKSKAIPRRLDIIAIFLSLIGVFLLVTNGNIGELSFSASALVWGLLSALGVCAYTLIPCPLIKEHPPLSLVAWALLIGGVISNFLHPVTNLPKNFDQTDLLLVSLIVVVGTLLAYSLYINSLKYTEPHIVGMLGMLEPVTAILISTLFLGVSFLGFQQLGIFVVFLSLFLINFPAKKK , state its recorded protein production.
failed
